B1: Hairpin Ribozyme (parent)
chain: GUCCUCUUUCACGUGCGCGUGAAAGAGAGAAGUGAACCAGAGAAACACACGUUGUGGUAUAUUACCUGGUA

- Variants of: B1
- ASSAY_TEXT: self-cleavage, relative activity (ratio to wild type); higher = more cleavage; co-transcriptional
MEASUREMENT_TYPE: self-cleavage
Answers are plain numbers.

Known results for variants:
Lookup: I have this variant here, U8G G13A , and I need its recorded self-cleavage.
Found: 0.618

Lookup: Another variant to check: U7C A43G
Found: 0.0623

Lookup: Another variant to check: C16G G69C
Found: 0.197

Lookup: Another variant to check: A22U A43C
Found: 0.178

Please go through the list and note self-cleavage for each variant.
1. U14G A43G
2. A30U U53C
3. U14C G54A
4. G17U A49U
5. G27C G51U
6. C16A U55A

Found:
1. 0.0894
2. 0.041
3. 0.509
4. 0.195
5. 0.17
6. 0.221
